subjectOfTest: Protein kinase C alpha type (Homo sapiens)
IC50 strictly under 400 nM means 1.0; at 400 nM or over means 0.0.

These recorded examples may help you get a feel for the data.
Ask: A record lists O=C(NC1CNC[C@@H]1OC(=O)c1cc(O)c(C(=O)c2c(O)cccc2C(=O)O)c(O)c1)c1ccc(O)cc1 (mixture of isomers) . Is its IC50 below 400 nM?
Reply: 1.0

Ask: A record lists O=C(NC1CN2CCC(CC2)C1OC(=O)c1cc(O)c(C(=O)c2c(O)cccc2C(=O)O)c(O)c1)c1ccc(O)cc1 (stereo in doubt; anti) . Is its IC50 below 400 nM?
Reply: 0.0

Ask: A record lists CN1C2CCC1C(NC(=O)c1ccc(O)cc1)C(OC(=O)c1cc(O)c(C(=O)c3c(O)cccc3C(=O)O)c(O)c1)C2 (stereo in doubt; anti) . Is its IC50 below 400 nM?
Reply: 0.0

Kindly review the next compound as well.
Ask: A record lists O=C(NC1CCC[C@@H]1OC(=O)c1cc(O)c(C(=O)c2c(O)cccc2C(=O)O)c(O)c1)c1ccc(O)cc1 (mixture of isomers) . Is its IC50 below 400 nM?
Reply: 1.0

====

Below, each entry is listed with its recorded IC50.
subjectOfTest: Protein kinase C beta type (Homo sapiens, UniProt P05771)
Sequence (P05771 whole entry): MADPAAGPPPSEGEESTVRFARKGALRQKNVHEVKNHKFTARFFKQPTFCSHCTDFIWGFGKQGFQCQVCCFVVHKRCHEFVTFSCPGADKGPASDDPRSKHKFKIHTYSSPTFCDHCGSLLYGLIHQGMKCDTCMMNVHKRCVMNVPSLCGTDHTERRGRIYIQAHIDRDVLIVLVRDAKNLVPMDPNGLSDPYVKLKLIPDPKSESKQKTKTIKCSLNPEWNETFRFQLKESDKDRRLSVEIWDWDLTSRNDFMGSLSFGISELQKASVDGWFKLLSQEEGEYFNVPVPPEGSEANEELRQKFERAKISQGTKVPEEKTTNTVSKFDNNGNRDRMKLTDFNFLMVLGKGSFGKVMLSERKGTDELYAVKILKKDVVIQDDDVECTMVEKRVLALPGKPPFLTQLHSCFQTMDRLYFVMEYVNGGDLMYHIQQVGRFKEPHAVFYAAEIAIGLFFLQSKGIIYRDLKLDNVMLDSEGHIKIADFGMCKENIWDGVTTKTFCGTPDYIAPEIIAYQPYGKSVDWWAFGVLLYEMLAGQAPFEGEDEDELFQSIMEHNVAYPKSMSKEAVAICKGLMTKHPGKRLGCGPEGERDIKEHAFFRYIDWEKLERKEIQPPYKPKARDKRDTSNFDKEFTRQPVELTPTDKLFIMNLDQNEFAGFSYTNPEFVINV
assayExplanation: Inhibition of Protein kinase C beta 1
Answers without a unit are incomplete; give the number and then its unit.

Some molecules with known IC50 results, for comparison:
Ask: Item O=C(NC1CN2CCC(CC2)C1OC(=O)c1cc(O)c(C(=O)c2c(O)cccc2C(=O)O)c(O)c1)c1ccc(O)cc1 (stereo in doubt; syn) has what recorded IC50?
Reply: 6300 nM

Ask: Item O=C(NC1C2CC(C3CCCC32)C1OC(=O)c1cc(O)c(C(=O)c2c(O)cccc2C(=O)O)c(O)c1)c1ccc(O)cc1 (stereo in doubt; anti) has what recorded IC50?
Reply: 150 nM

From here, focus on the item given below.
Ask: Item O=C(N[C@@H]1CNCCCC1OC(=O)c1cc(O)c(C(=O)c2c(O)cccc2C(=O)O)c(O)c1)c1ccc(O)cc1 (mixture of isomers) has what recorded IC50?
Reply: 32 nM

====

Below, each entry is listed with its recorded IC50.
subjectOfTest: cAMP-dependent protein kinase (PKA) (Homo sapiens, UniProt P22694+P17612+P22612)
assayExplanation: Inhibition of Protein Kinase A
Assay type: protein assay

Ask: Item CN1C2CCC1C(NC(=O)c1ccc(O)cc1)C(OC(=O)c1cc(O)c(C(=O)c3c(O)cccc3C(=O)O)c(O)c1)C2 (stereo in doubt; anti) has what recorded IC50?
Reply: > 50 µM

Others:
Ask: Item CC1(C)C2CCC1(C)C(OC(=O)c1cc(O)c(C(=O)c3c(O)cccc3C(=O)O)c(O)c1)C2NC(=O)c1ccc(O)cc1 (stereo not drawn) has what recorded IC50?
Reply: 26 µM

Ask: Item CN1C2CCC1C(NC(=O)c1ccc(O)cc1)C(OC(=O)c1cc(O)c(C(=O)c3c(O)cccc3C(=O)O)c(O)c1)C2 (stereo in doubt; syn) has what recorded IC50?
Reply: > 50 µM

====

subjectOfTest: cAMP-dependent protein kinase (PKA) (Homo sapiens, UniProt P22694+P17612+P22612)
assayExplanation: Inhibition of Protein Kinase A
Format: protein assay
endpointLabel: IC50 (µM)
Write down the numeric answer in µM and omit the unit.

Ask: Item O=C(NC1C2CC(C3CCCC32)C1OC(=O)c1cc(O)c(C(=O)c2c(O)cccc2C(=O)O)c(O)c1)c1ccc(O)cc1 (stereo in doubt; anti) has what recorded IC50?
Reply: 32

From here, focus on the item given below.
Ask: Item O=C(NC1C2CCC(C2)C1OC(=O)c1cc(O)c(C(=O)c2c(O)cccc2C(=O)O)c(O)c1)c1ccc(O)cc1 (racemic) has what recorded IC50?
Reply: 1.9

====

subjectOfTest: Protein kinase C epsilon type (Homo sapiens)
Sequence (Q02156 whole entry): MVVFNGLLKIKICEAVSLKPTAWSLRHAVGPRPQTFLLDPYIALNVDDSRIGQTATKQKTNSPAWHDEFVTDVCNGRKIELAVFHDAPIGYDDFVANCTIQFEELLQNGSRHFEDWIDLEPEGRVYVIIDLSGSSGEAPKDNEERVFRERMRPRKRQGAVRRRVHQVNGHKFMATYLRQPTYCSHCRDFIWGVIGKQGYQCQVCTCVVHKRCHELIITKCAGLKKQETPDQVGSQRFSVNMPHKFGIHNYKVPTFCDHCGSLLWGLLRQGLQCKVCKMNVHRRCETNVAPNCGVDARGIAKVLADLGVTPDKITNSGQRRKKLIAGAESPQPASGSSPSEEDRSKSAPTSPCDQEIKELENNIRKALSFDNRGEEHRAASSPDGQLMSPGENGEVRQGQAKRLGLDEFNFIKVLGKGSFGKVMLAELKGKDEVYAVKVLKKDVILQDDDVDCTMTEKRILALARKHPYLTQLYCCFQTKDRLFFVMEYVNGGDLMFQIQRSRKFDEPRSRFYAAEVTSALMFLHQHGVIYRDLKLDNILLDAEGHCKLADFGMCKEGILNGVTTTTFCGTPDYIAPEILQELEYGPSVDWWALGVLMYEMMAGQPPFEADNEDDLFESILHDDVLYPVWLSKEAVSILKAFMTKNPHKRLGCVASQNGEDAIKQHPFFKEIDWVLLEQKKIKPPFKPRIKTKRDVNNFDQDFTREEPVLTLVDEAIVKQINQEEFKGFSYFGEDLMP
assayExplanation: Inhibition of Protein kinase C epsilon
endpointLabel: pIC50
To interpret pIC50, take it as minus log10 of a concentration measured in moles per litre.

Some compounds with known pIC50 results, for comparison:
Ask: Item O=C(NC1CCC[C@@H]1OC(=O)c1cc(O)c(C(=O)c2c(O)cccc2C(=O)O)c(O)c1)c1ccc(O)cc1 (mixture of isomers) has what recorded pIC50?
Reply: 7.30

Ask: Item O=C(NC1C2CC(C3CCCC32)C1OC(=O)c1cc(O)c(C(=O)c2c(O)cccc2C(=O)O)c(O)c1)c1ccc(O)cc1 (stereo in doubt; syn) has what recorded pIC50?
Reply: 4.40

Ask: Item CC1(C)C2CCC1(C)C(OC(=O)c1cc(O)c(C(=O)c3c(O)cccc3C(=O)O)c(O)c1)C2NC(=O)c1ccc(O)cc1 (stereo unspecified) has what recorded pIC50?
Reply: 5.44

Others:
Ask: Item O=C(NC1CNC[C@@H]1OC(=O)c1cc(O)c(C(=O)c2c(O)cccc2C(=O)O)c(O)c1)c1ccc(O)cc1 (mixture of isomers) has what recorded pIC50?
Reply: 7.82

Ask: Item O=C(NC1CN2CCC(CC2)C1OC(=O)c1cc(O)c(C(=O)c2c(O)cccc2C(=O)O)c(O)c1)c1ccc(O)cc1 (stereo in doubt; syn) has what recorded pIC50?
Reply: 4.85

Ask: Item O=C(NC1C2CC(C3CCCC32)C1OC(=O)c1cc(O)c(C(=O)c2c(O)cccc2C(=O)O)c(O)c1)c1ccc(O)cc1 (stereo in doubt; anti) has what recorded pIC50?
Reply: 6.01

====

Below, each entry is listed with its recorded IC50.
subjectOfTest: Protein kinase C delta type (Homo sapiens, UniProt Q05655)
Sequence (Q05655 whole entry): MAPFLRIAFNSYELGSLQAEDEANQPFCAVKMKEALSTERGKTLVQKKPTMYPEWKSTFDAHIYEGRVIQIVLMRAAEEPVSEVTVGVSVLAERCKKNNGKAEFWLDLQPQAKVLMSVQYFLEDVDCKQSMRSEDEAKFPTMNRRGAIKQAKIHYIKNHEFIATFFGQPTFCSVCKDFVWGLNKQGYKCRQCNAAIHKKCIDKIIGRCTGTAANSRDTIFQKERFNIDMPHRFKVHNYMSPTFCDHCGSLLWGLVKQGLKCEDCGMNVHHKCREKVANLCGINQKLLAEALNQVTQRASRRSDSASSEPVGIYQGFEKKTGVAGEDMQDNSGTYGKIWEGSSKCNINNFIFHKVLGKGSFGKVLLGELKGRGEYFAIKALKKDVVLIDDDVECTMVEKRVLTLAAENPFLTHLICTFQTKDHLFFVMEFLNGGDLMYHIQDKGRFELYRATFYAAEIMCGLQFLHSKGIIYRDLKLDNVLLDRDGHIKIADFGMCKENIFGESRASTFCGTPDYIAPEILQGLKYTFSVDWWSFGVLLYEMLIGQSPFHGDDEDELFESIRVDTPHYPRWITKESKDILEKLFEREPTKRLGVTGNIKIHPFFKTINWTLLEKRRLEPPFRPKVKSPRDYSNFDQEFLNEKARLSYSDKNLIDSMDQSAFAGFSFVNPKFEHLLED
assayExplanation: Inhibition of Protein kinase C delta
Write down the numeric answer in nM and omit the unit.

Some compounds with known IC50 results, for comparison:
Ask: Item O=C(NC1CN2CCC(CC2)C1OC(=O)c1cc(O)c(C(=O)c2c(O)cccc2C(=O)O)c(O)c1)c1ccc(O)cc1 (stereo in doubt; anti) has what recorded IC50?
Reply: 112

Ask: Item O=C(NC1C2CCC(C2)C1OC(=O)c1cc(O)c(C(=O)c2c(O)cccc2C(=O)O)c(O)c1)c1ccc(O)cc1 (racemic) has what recorded IC50?
Reply: 20

Ask: Item CN1C2CCC1C(NC(=O)c1ccc(O)cc1)C(OC(=O)c1cc(O)c(C(=O)c3c(O)cccc3C(=O)O)c(O)c1)C2 (stereo in doubt; syn) has what recorded IC50?
Reply: 3800

Ask: Item O=C(NC1C2CC(C3CCCC32)C1OC(=O)c1cc(O)c(C(=O)c2c(O)cccc2C(=O)O)c(O)c1)c1ccc(O)cc1 (stereo in doubt; anti) has what recorded IC50?
Reply: 50

Ask: Item O=C(N[C@@H]1CNCCCC1OC(=O)c1cc(O)c(C(=O)c2c(O)cccc2C(=O)O)c(O)c1)c1ccc(O)cc1 (mixture of isomers) has what recorded IC50?
Reply: 32

From here, focus on the item given below.
Ask: Item CC1(C)C2CCC1(C)C(OC(=O)c1cc(O)c(C(=O)c3c(O)cccc3C(=O)O)c(O)c1)C2NC(=O)c1ccc(O)cc1 (stereo unspecified) has what recorded IC50?
Reply: 340

====

subjectOfTest: Protein kinase C beta type (Homo sapiens)
assayExplanation: Inhibition of Protein kinase C beta 1
endpointLabel: pIC50
To interpret pIC50, take it as minus log10 of a concentration measured in moles per litre.

Ask: Item CN1C2CCC1C(NC(=O)c1ccc(O)cc1)C(OC(=O)c1cc(O)c(C(=O)c3c(O)cccc3C(=O)O)c(O)c1)C2 (stereo in doubt; syn) has what recorded pIC50?
Reply: 4.66

Ask: Item O=C(NC1CCC[C@@H]1OC(=O)c1cc(O)c(C(=O)c2c(O)cccc2C(=O)O)c(O)c1)c1ccc(O)cc1 (mixture of isomers) has what recorded pIC50?
Reply: 7.40

Others:
Ask: Item O=C(NC1C2CCC(C2)C1OC(=O)c1cc(O)c(C(=O)c2c(O)cccc2C(=O)O)c(O)c1)c1ccc(O)cc1 (stereo in doubt) has what recorded pIC50?
Reply: 4.77
